Measured hALPP Kd accompanies every entry in the list below.
# TARGET: ALPP (Homo sapiens, UniProt P05187)
# Sequence (P05187 with tags, fused parts or gaps): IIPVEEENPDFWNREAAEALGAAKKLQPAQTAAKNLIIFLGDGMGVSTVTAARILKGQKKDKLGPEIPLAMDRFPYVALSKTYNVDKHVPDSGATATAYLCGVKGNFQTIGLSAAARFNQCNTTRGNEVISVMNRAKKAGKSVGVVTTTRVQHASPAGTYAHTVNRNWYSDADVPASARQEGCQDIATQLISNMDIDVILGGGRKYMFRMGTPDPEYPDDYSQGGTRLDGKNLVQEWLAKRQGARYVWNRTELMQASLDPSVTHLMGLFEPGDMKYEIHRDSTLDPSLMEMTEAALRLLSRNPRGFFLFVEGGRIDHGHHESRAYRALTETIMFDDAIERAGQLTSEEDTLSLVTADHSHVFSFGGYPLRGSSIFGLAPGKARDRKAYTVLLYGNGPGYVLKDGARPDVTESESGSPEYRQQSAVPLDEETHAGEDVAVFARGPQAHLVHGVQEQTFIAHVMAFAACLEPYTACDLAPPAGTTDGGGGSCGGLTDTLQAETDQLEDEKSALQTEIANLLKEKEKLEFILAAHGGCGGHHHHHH
# EXPERIMENT_NOTES: BLI binding kinetics, human ALPP immobilised on AR2G sensors (KD / KD apparent)
# STATED_CONDITIONS: VHH domains
# unit: s⁻¹ | format: bare number

H10: ALPP targeting VHH domain, SEQ ID NO: 40 (protein) VHH: QVQLVESGGGSVQTGGSLRLSCAASGPSLSNYAMGWFRQAPGKEREFVAGISWGGGRTNYLDSVKGRFTISRDNAKNTMYLQMNSLKPEDAAVYYCAGRYGRGRDVEYEYDYWGQGTQVTVSS | 0.0000085
D10: ALPP targeting VHH domain, SEQ ID NO: 28 (protein) VHH: QVQLVESGGGLVQPGGSLRLSCAASGSIFSVNTMGWYRQAPGKQRDLVAVATSGGTIHYADSVKGRFTISRDNAKNTVYLQMNSLKPEDTAVYYCNLVVPYGMIAGDHDYWGQGTKVTVSS | 0.000013

Here's the next entry for you.
input: Return reported hALPP Kd; argument: A06: ALPP/ALPPL2 targeting VHH domain, SEQ ID NO: 17; tested C-terminally His-tagged (protein, C-terminal His tag, tested C-terminally His-tagged) VHH: QVHLVESGGGLVQAGGSLRLSCAASGRTFLSMGWFRQAPGKEREFVAAISWTGGSTGYADSVKGRFTISRESDKETMYLQMNSLKPEDTAVYYCAARGDVYYGGDDATRYKYWGQGTQVTVSS
output: 0.000154
